- target-under-test: Integrin alpha-4/beta-1 (Homo sapiens, UniProt P05556+P13612)
- Sequence (P05556 whole entry): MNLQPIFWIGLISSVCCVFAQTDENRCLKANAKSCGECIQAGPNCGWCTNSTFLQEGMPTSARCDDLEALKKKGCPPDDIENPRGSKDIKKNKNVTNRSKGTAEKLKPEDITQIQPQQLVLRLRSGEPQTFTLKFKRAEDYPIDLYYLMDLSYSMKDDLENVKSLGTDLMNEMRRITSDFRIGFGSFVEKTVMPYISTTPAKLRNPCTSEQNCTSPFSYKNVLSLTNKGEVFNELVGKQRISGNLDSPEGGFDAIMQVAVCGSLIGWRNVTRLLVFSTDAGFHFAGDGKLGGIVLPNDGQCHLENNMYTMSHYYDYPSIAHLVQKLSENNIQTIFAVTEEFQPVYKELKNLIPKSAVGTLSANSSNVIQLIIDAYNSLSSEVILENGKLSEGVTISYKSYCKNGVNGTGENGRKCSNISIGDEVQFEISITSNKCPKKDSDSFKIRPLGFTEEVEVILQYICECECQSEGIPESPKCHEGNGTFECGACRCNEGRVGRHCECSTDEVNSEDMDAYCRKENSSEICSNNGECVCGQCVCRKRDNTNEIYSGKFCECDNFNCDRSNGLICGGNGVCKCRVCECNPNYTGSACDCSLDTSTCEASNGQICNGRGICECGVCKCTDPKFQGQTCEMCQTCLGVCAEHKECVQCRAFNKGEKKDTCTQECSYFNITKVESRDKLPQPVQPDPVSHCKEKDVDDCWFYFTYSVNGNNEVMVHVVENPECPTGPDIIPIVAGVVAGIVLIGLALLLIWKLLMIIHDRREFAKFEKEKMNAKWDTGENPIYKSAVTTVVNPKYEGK
- Sequence (P13612 whole entry): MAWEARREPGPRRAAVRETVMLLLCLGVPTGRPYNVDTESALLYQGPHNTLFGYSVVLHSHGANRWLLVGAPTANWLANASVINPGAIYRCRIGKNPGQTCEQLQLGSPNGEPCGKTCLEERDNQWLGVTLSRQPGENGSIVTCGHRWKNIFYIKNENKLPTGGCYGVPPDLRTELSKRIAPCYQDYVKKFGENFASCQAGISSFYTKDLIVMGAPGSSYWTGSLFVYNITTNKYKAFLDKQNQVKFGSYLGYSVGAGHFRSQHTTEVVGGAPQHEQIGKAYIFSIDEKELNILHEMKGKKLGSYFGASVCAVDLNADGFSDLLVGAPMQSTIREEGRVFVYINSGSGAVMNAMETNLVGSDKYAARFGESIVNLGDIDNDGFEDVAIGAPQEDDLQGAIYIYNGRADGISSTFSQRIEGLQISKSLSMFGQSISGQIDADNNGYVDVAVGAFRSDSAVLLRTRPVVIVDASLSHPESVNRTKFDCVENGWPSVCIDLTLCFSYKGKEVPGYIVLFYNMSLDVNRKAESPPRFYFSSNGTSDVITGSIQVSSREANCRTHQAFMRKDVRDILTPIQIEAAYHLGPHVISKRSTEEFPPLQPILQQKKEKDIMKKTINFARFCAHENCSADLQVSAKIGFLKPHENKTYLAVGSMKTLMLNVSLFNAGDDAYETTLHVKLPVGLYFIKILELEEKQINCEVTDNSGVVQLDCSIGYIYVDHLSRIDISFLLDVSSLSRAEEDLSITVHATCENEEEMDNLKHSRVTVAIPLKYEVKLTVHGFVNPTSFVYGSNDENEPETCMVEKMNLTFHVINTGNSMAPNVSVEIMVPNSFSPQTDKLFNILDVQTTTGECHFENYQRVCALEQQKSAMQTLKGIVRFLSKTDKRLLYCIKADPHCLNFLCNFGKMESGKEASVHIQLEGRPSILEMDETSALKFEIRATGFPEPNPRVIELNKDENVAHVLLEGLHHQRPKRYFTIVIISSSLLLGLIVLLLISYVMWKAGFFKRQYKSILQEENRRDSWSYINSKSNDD
- measurement-notes: Inhibitory binding concentration against VCAM/VLA-4 in ELISA.
- Format: protein-complex assay
pIC50: −log10 of the molar value.
metric: pIC50

Cc1noc(C)c1C(=O)N[C@@H](Cc1ccc(NC(=O)c2c(Cl)cccc2Cl)cc1)C(=O)O
7.82

P: Cc1cccc(C)c1C(=O)N[C@@H](Cc1ccc(NC(=O)c2c(Cl)cccc2Cl)cc1)C(=O)O
Q: CCc1cccc(C)c1C(=O)N[C@@H](Cc1ccc(NC(=O)c2c(Cl)cccc2Cl)cc1)C(=O)O
INPUT: Hi there! Just curious which has the higher pIC50 between P and Q . Identify your selection by its label.
OUTPUT: Q
